Listed here are sequences together with their documented switch fluorescence ratio.
# Test system: ATP;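 also: ATP exposure 15 min at 22 °C before imaging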
# method: switch fluorescence ratio, 500 uM ATP over buffer (Cy3 cluster intensity, sum of 5 cycles each) (fold (ratio)); higher = stronger signal-on switching upon ATP binding; sequences stand for … in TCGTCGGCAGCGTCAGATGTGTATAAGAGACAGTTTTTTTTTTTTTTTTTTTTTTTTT…TC
# recordedConditions: aptamer strand: ATP DNA aptamer (quencher-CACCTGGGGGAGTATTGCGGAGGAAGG + anchor), 100 nM annealed; ATP concentration: 500 uM
readoutType: switch fluorescence ratio

[[record]]
itemsequence = "TTTTTGCATG"
testvalue = 1.03

[[record]]
itemsequence = "CAAACTGTCA"
testvalue = 1.07

[[record]]
itemsequence = "TTGATTTAGG"
testvalue = 0.995

[[record]]
itemsequence = "TATTAGGGTT"
testvalue = 1.03

[[record]]
itemsequence = "GGTATTAGGA"
testvalue = 0.967

[[record]]
itemsequence = "ATCAACGTTA"
testvalue = 1.07

[[record]]
itemsequence = "AGTCGGTAGG"
testvalue = 1.02

[[record]]
itemsequence = "TTTTGTGGCA"
testvalue = 0.987

[[record]]
itemsequence = "CGCTCAGGAC"
testvalue = 1.29

[[record]]
itemsequence = "CTGAGGTAAT"
testvalue = 1.94

[[record]]
itemsequence = "TGGGTTGTTT"
testvalue = 0.986

[[record]]
itemsequence = "AACGGGACGT"
testvalue = 0.961

[[record]]
itemsequence = "ATGTTGCGGG"
testvalue = 1

[[record]]
itemsequence = "GGATTATGTA"
testvalue = 0.999

[[record]]
itemsequence = "TTACAAGTTA"
testvalue = 1.05

[[record]]
itemsequence = "TAAAGGTCGG"
testvalue = 0.967

[[record]]
itemsequence = "ATGCTAATTA"
testvalue = 1.02

[[record]]
itemsequence = "CGATGTCGCG"
testvalue = 0.989

[[record]]
itemsequence = "GGGTATTATA"
testvalue = 0.996

[[record]]
itemsequence = "ACAATGCTTT"
testvalue = 1.03

